B1: CPOX (parent)
chain: HAPTIHFNYRYFEVEEADGNKQWW

- Variants of: B1
- measurement-description: protein stability index of a GFP-peptide fusion (GPS, HEK-293T) (PSI 1-6); higher = more stable;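 also: lentivirally expressed fusions sorted by FACS into six bins by GFP to DsRed ratio, PSI derived from sequencing read proportions per bin multiplied by bin number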
- condition-description: c terminus: a fixed tail appended
Measured protein stability index values are reported for all entries that follow.

>  <variant-identifier>
V14N

>  <protein stability index>
2.42

$$$$
>  <variant-identifier>
T4A

>  <protein stability index>
2.38

$$$$
>  <variant-identifier>
E13D

>  <protein stability index>
2.36

$$$$
>  <variant-identifier>
G19M

>  <protein stability index>
2.06

$$$$
>  <variant-identifier>
P3E

>  <protein stability index>
1.99

$$$$
>  <variant-identifier>
F7G

>  <protein stability index>
3.52

$$$$
>  <variant-identifier>
A2C

>  <protein stability index>
1.99

$$$$
>  <variant-identifier>
V14I

>  <protein stability index>
2.44

$$$$
>  <variant-identifier>
N8A

>  <protein stability index>
2.22

$$$$
>  <variant-identifier>
N20P

>  <protein stability index>
1.98

$$$$
>  <variant-identifier>
I5W

>  <protein stability index>
2.47

$$$$
>  <variant-identifier>
K21D

>  <protein stability index>
2.52

$$$$
>  <variant-identifier>
D18A

>  <protein stability index>
2.6

$$$$
>  <variant-identifier>
Y9F

>  <protein stability index>
2.05

$$$$
>  <variant-identifier>
N8K

>  <protein stability index>
1.67

$$$$
>  <variant-identifier>
Y11M

>  <protein stability index>
2.42

$$$$
>  <variant-identifier>
Q22D

>  <protein stability index>
3.12

$$$$
>  <variant-identifier>
H6G

>  <protein stability index>
2.77

$$$$
>  <variant-identifier>
F12L

>  <protein stability index>
2.64

$$$$
>  <variant-identifier>
G19A

>  <protein stability index>
2.33

$$$$
>  <variant-identifier>
Y9D

>  <protein stability index>
3.46

$$$$
>  <variant-identifier>
Y9P

>  <protein stability index>
3.1

$$$$
>  <variant-identifier>
R10I

>  <protein stability index>
2.87

$$$$
>  <variant-identifier>
H1W

>  <protein stability index>
2.62

$$$$
>  <variant-identifier>
Q22P

>  <protein stability index>
2.56

$$$$
>  <variant-identifier>
W23D

>  <protein stability index>
4.27

$$$$
>  <variant-identifier>
E16F

>  <protein stability index>
1.44

$$$$
>  <variant-identifier>
F12A

>  <protein stability index>
2.49

$$$$
>  <variant-identifier>
N20L

>  <protein stability index>
2.12

$$$$
>  <variant-identifier>
E16H

>  <protein stability index>
1.82

$$$$
>  <variant-identifier>
E13T

>  <protein stability index>
1.67

$$$$
>  <variant-identifier>
E15H

>  <protein stability index>
1.5

$$$$
>  <variant-identifier>
W24M

>  <protein stability index>
3.4

$$$$
>  <variant-identifier>
I5N

>  <protein stability index>
2.9

$$$$
>  <variant-identifier>
E15R

>  <protein stability index>
1.41

$$$$
>  <variant-identifier>
Y11E

>  <protein stability index>
3.35

$$$$
>  <variant-identifier>
A2D

>  <protein stability index>
2.94

$$$$
>  <variant-identifier>
F12R

>  <protein stability index>
2.96

$$$$
>  <variant-identifier>
A2V

>  <protein stability index>
2.85

$$$$
>  <variant-identifier>
N8Q

>  <protein stability index>
2.48

$$$$
>  <variant-identifier>
V14L

>  <protein stability index>
2.37

$$$$
>  <variant-identifier>
H6A

>  <protein stability index>
2.19

$$$$
